Examples of binders with documented kon follow.
assayed system: T1, Human latent myostatin (human, UniProt O14793 25-266; O14793 267-375)
T1 construct: Biotinylated in the ELISAs; also called human myostatin latent form
T1 sequence 1: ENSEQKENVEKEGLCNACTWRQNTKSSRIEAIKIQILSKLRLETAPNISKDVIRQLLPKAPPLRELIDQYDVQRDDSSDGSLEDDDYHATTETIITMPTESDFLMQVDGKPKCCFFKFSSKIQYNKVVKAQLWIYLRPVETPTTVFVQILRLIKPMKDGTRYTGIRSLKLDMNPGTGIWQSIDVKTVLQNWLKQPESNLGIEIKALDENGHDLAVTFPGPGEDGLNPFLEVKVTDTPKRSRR
T1 sequence 2: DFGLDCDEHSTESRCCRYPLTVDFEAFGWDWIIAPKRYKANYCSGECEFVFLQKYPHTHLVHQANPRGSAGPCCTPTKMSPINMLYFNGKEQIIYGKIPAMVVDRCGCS
run description: SPR (BIACORE T200), 37 C, pH7.4, avidity condition (capture 185 RU), 1:1 fit; pH 7.4
Quick reminder: number only, in M⁻¹ s⁻¹, skip the unit.

[[record]]
binder = "MS_M103205H000-SG1/M103202LO00-SK1 (antibody, human IgG1, kappa, V domains shown, Humanized MST1032, not pH-dependent; also called MS1032LO00-SG1; Ab001) VH: QVTLKESGPVLVKPTETLTLTCTVSGIDLSSYDISWVRQAPGKGLEWVGIISYAGSTYYASWAKGRLTISKDTSKNQVVLTMTNMDPVDTATYYCARGVPAYSTGGDLWGQGTLVTVSS VL: DIVMTQSPATLSLSPGERATLSCQSSQSVYDNNWLSWFQQKPGQPPKLLIYWASTLASGVPSRFSGSGSGTDFTLTISSLQPEDAATYYCAGGYGGGLYAFGQGTKVEIKR"
parameter_measured = "kon"
assay_value = "1.27e+06"


Fill in: kon of MS_M103205H781-SG1/M103202L813-SK1 (antibody, human IgG1, kappa, V domains shown, also called MS1032LO03-SG1; MSLO-03) VH: QVTLKESGPVLVKPTETLTLTCTVSGIDLSHTDISWVRQAPGKGLEWVGIISYAGSTYYMSWAKGRLTISKDTSKNQVVLTMTNMDPVDTATYYCARGVPAYSHGGDLWGQGTLVTVSS VL: DIVMTQSPATLSLSPGERATLSCQTSQSVYHDNWLSWFQQKPGQPPKLLIYWASTLASGVPSRFSGSGSGTDFTLTISSLQPEDAATYYCAGGYGGGRYAFGQGTKVEIKR is ___
981000
